Tested on: P388 leukemia ip, CD2F1 mice, survival T/C
Test: NCI In Vivo Anticancer Drug Screen. Data for tumor model P388 Leukemia (intraperitoneal) in CD2F1 (CDF1) mice
Conditions: endpoint: median survival time; dose: 100.0 mg/kg/injection; schedule: Q01DX001 (ip); vehicle: Klucel (hydroxypropylcellulose) (HPC); higher = longer survival
Toxic doses and inconclusive results are not listed.
Listed compounds paired with reported T/C
Attribute Measured: T/C

INSERT INTO results (compound, meas_value) VALUES
  ('FC(F)(F)c1nn2c(-c3cnns3)nnc2s1', '98 % of control'),
  ('N#Cc1c(Cl)nc2sccn12', '95 % of control'),
  ('COc1ccccc1-n1c(=O)c(N=Nc2ccccc2Cl)c(O)n(-c2ccccc2Cl)c1=S', '101 % of control'),
  ('O=S(=O)(/N=C1C=C/C(=N\S(=O)(=O)c2ccccc2)C2C/1C2(c1ccccc1)c1ccccc1)c1ccccc1 (stereo unspecified)', '97 % of control'),
  ('COc1cc(Cc2nnc(N)[nH]c2=O)cc(OC)c1OC', '116 % of control'),
  ('CCCCOP(O)(=S)OCCCC.[Fe]', '102 % of control'),
  ('O=C(NCCNC(=S)Nc1ccccc1)C(=O)NCCNC(=S)Nc1ccccc1', '91 % of control'),
  ('NC(=S)c1ccc(N=Cc2ccco2)cc1', '102 % of control'),
  ('CC(=O)C1(CCC(C)(S(=O)(=O)c2ccccc2)S(=O)(=O)c2ccccc2)CCCCC1=O (stereo unspecified)', '99 % of control'),
  ('COc1c(C)cc(C)c(CBr)c1-c1c(CBr)c(C)cc(C)c1OC', '95 % of control'),
  ('Cc1onc(-c2ccccc2)c1C(C)(O)c1ccccc1 (stereo unspecified)', '90 % of control');

###

Listed compounds paired with reported T/C
Test system: P388 leukemia ip, CD2F1 mice, survival T/C
Test: NCI In Vivo Anticancer Drug Screen. Data for tumor model P388 Leukemia (intraperitoneal) in CD2F1 (CDF1) mice
Details: endpoint: median survival time; dose: 100.0 mg/kg/injection; schedule: Q01DX005 (ip); vehicle: Klucel (hydroxypropylcellulose) (HPC); higher = longer survival
Toxic doses and inconclusive results are not listed. Peptide text beside a SMILES is read from it.
Attribute Measured: T/C

INSERT INTO assay_data (compound, attribute_measured, meas_value) VALUES
  ('CC(C)NC1CCC(Nc2ccnc3cc(Cl)ccc23)CC1 (centres undefined)', 'T/C', '97 % of control'),
  ('c1nc(N2CCOCC2)c2[nH]cnc2n1', 'T/C', '88 % of control'),
  ('CC1(C)C=Cc2c(cc(O)c3c(=O)c4cccnc4oc23)O1', 'T/C', '102 % of control'),
  ('COC(=O)C1=C(C(=O)OC)C2(c3ccccc3-c3ccccc32)C2C=CC=NN12 (centres undefined)', 'T/C', '103 % of control'),
  ('O=C1CNC(=O)N1CN1CCc2ccccc2C1', 'T/C', '105 % of control'),
  ('COc1c(/C=C/C=O)cc2c(c1OC)OCO2', 'T/C', '104 % of control'),
  ('C[n+]1cccc2c1-c1ccccc1C2=O', 'T/C', '101 % of control'),
  ('O=C(O)C(Cc1ccccc1)Nc1ncnc2nc[nH]c12 (centres undefined)', 'T/C', '100 % of control'),
  ('Cc1cccc(C)c1OCc1nnc(SCC(=O)O)n1-c1c(C)cccc1C', 'T/C', '99 % of control'),
  ('COC(=O)c1nn(-c2ccccc2)c2c1C(=O)c1ccccc1C2=O', 'T/C', '92 % of control'),
  ('Cc1c(C)n(C)c(=S)n(C)c1=S', 'T/C', '99 % of control'),
  ('CC1CCCC(C)N1C(=O)OCC12COC3(C)CCC(C)(OC1)N23 (centres undefined)', 'T/C', '109 % of control'),
  ('O=c1ccccc(Br)c1O', 'T/C', '106 % of control'),
  ('c1cc2c3c(cccc3c1)NC(c1ccc3c(c1)OCO3)N2', 'T/C', '100 % of control'),
  ('C[C@@H]1CN(c2ccccc2)C[C@H](C)OS(=O)O1 (some centres undefined)', 'T/C', '100 % of control'),
  ('CC12CC=CCC1CCC1C2CCC2(C)C(O)C(O)CC12 (centres undefined)', 'T/C', '95 % of control'),
  ('C=CCOP1(c2ccccc2)(c2ccccc2)NC(c2ccccc2)(c2ccccc2)C(C(=O)OC)=C1C(=O)OC', 'T/C', '91 % of control'),
  ('CCC(C)C(NC(=O)C(Cc1ccccc1)NC(=O)C(N)CSC)C(N)=O (stereo not drawn) (H-Cys(Me)-Phe-Ile-NH2; configuration not given here)', 'T/C', '99 % of control'),
  ('CCN(CC)c1ccc(CCc2ccc(N(CC)CC)c3cccnc23)c2ncccc12', 'T/C', '112 % of control'),
  ('O=C(NCc1ccco1)Nc1ccccc1[N+](=O)[O-]', 'T/C', '95 % of control'),
  ('CCOCCOC(=O)c1nn(-c2ccc(Cl)cc2)c2c1C(=O)c1ccccc1C2=O', 'T/C', '100 % of control'),
  ('Cc1ccc(CSCC(NC(=O)OC(C)(C)C)C(=O)O)cc1 (centres undefined)', 'T/C', '97 % of control'),
  ('N#CC1CC(=O)c2ccccc2C1=O (centres undefined)', 'T/C', '104 % of control'),
  ('C(=N\c1nccs1)/c1ccc[nH]1', 'T/C', '96 % of control');

###

System: P388 leukemia ip, CD2F1 mice, survival T/C
Test: NCI In Vivo Anticancer Drug Screen. Data for tumor model P388 Leukemia (intraperitoneal) in CD2F1 (CDF1) mice
Settings: endpoint: median survival time; dose: 6.25 mg/kg/injection; schedule: Q01DX009 (ip); vehicle: Klucel (hydroxypropylcellulose) (HPC); higher = longer survival
Inconclusive results and toxic doses are left out.
Attribute Measured: T/C

INSERT INTO measurements (compound, meas_value) VALUES
  ('CN(C)c1nc(N)nc(N)n1', '100 % of control'),
  ('Nc1nc(-c2ccccc2N=NN2CCN(N=Nc3ccccc3-c3nc(N)c4ccccc4n3)CC2)nc2ccccc12', '100 % of control'),
  ('N#CN=[N+]([O-])c1ccccc1Br', '100 % of control'),
  ('COc1cc(O)c2c(c1)C(=O)c1cc3c(c(O)c1C2=O)C(O)C(OC)C(C)(O)C3=O (stereo not given)', '95 % of control'),
  ('O=c1[nH]c(=O)c2ccccc2o1', '104 % of control');

###

Tested on: P388 leukemia ip, CD2F1 mice, survival T/C
Assay: NCI In Vivo Anticancer Drug Screen. Data for tumor model P388 Leukemia (intraperitoneal) in CD2F1 (CDF1) mice
Settings: endpoint: median survival time; dose: 120.0 mg/kg/injection; schedule: Q01DX005 (ip); vehicle: saline with Tween-80; higher = longer survival
Toxic doses and inconclusive results are not listed.
Attribute Measured: T/C

INSERT INTO results (compound, target_or_system, attribute_measured, meas_value) VALUES
  ('COC1=CC(=O)OC(/C=C/c2ccccc2)(OC)C1=O (stereo not given)', 'P388 leukemia ip, CD2F1 mice, survival T/C', 'T/C', '110 % of control'),
  ('C=C(c1ccc(OC)cc1)C(CC)c1ccc(OC)cc1 (stereo not given)', 'P388 leukemia ip, CD2F1 mice, survival T/C', 'T/C', '100 % of control'),
  ('CCNC1=C(C(=O)OCC)C(=O)CO1', 'P388 leukemia ip, CD2F1 mice, survival T/C', 'T/C', '100 % of control'),
  ('N#CC(NCc1ccccc1)c1ccccc1 (stereo not given)', 'P388 leukemia ip, CD2F1 mice, survival T/C', 'T/C', '100 % of control'),
  ('COc1ccc(C2c3cc4c(cc3OC3(O)CCCC(=O)C23)OCO4)cc1 (stereo not given)', 'P388 leukemia ip, CD2F1 mice, survival T/C', 'T/C', '100 % of control'),
  ('CN(C)C1C(=O)c2ccccc2C1=O', 'P388 leukemia ip, CD2F1 mice, survival T/C', 'T/C', '107 % of control'),
  ('Cc1ccc(C2COc3cc(O)c(O)cc3C2)cc1 (stereo not given)', 'P388 leukemia ip, CD2F1 mice, survival T/C', 'T/C', '105 % of control'),
  ('O=C(Nc1ccc(CCO)cc1)c1cccc(F)c1', 'P388 leukemia ip, CD2F1 mice, survival T/C', 'T/C', '86 % of control'),
  ('C=C(C)CBr', 'P388 leukemia ip, CD2F1 mice, survival T/C', 'T/C', '100 % of control'),
  ('CC1(C)C=Cc2c(ccc3c(=O)c(-c4ccccc4)coc23)O1', 'P388 leukemia ip, CD2F1 mice, survival T/C', 'T/C', '98 % of control'),
  ('NC(=O)CCN1CCCN(CCC(N)=O)CCN(CCC(N)=O)CCCN(CCC(N)=O)CC1', 'P388 leukemia ip, CD2F1 mice, survival T/C', 'T/C', '110 % of control'),
  ('COC(=O)c1nc(N)nc(C(=O)OC)c1C(=O)c1ccc(C)cc1', 'P388 leukemia ip, CD2F1 mice, survival T/C', 'T/C', '100 % of control'),
  ('O=S1CCCS(=O)C1c1ccccc1 (stereo not given)', 'P388 leukemia ip, CD2F1 mice, survival T/C', 'T/C', '91 % of control'),
  ('COc1ccc(OC)c(NC(=O)CCCC(=O)C(C#N)c2ccccc2C)c1 (stereo not given)', 'P388 leukemia ip, CD2F1 mice, survival T/C', 'T/C', '105 % of control'),
  ('Cc1nc2[nH]cc(C)c2c(=O)[nH]1', 'P388 leukemia ip, CD2F1 mice, survival T/C', 'T/C', '97 % of control'),
  ('[CH2+][B-]1(C)n2ccc[n+]2[B-](C)(C)[n+]2cccn21', 'P388 leukemia ip, CD2F1 mice, survival T/C', 'T/C', '98 % of control'),
  ('CN(C)c1ccc(C(c2cc3c(cc2O)OCO3)N2CCCCC2)cc1 (stereo not given)', 'P388 leukemia ip, CD2F1 mice, survival T/C', 'T/C', '121 % of control'),
  ('O=C(O)/C(=C/c1cccs1)c1ccc(F)cc1', 'P388 leukemia ip, CD2F1 mice, survival T/C', 'T/C', '102 % of control'),
  ('COc1cc(/C=N/NC(=O)c2cc(OC)c(OC)c(OC)c2)ccc1O', 'P388 leukemia ip, CD2F1 mice, survival T/C', 'T/C', '101 % of control'),
  ('CCC(/C=C/c1ccccc1)=N\NC(=O)c1ccc(Cl)c(Cl)c1', 'P388 leukemia ip, CD2F1 mice, survival T/C', 'T/C', '88 % of control'),
  ('O=C1C(c2cnc3c(n2)CCC=C3)=C(O)c2ccccc21', 'P388 leukemia ip, CD2F1 mice, survival T/C', 'T/C', '100 % of control'),
  ('COc1ccc(C2C3=C(CCCC3=O)Oc3cc4c(cc32)OCO4)c(OC)c1 (stereo not given)', 'P388 leukemia ip, CD2F1 mice, survival T/C', 'T/C', '90 % of control'),
  ('CC(C)NC(=O)OCCS(=O)c1c(Cl)c(Cl)nn1C (stereo not given)', 'P388 leukemia ip, CD2F1 mice, survival T/C', 'T/C', '109 % of control'),
  ('CCCCCCCCCCCCCCCc1nc(SCC(=O)OC)n[nH]1', 'P388 leukemia ip, CD2F1 mice, survival T/C', 'T/C', '99 % of control'),
  ('CCN(CC)CCOc1ccc(N=Nc2ccc(N)nc2N)cc1', 'P388 leukemia ip, CD2F1 mice, survival T/C', 'T/C', '93 % of control');
